B1: TPR t1 (parent)
chain: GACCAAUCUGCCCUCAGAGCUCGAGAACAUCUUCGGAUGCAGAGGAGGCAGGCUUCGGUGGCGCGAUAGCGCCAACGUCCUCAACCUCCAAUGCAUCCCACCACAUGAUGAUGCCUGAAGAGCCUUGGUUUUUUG

Variants of: B1
Test: polymerase ribozyme fitness, log enrichment relative to wild type (log ratio); higher = more active; in vitro selection for triplet polymerase activity
Classification field: enter yes (1) for polymerase ribozyme fitness (log ratio) values not below -4, no (0) for values below it.

Use these answered entries as a reference point.
>>> discrete_label("G19U G39C C53U C124A")
"yes (1)"
>>> discrete_label("G61C A83C C89U")
"yes (1)"
>>> discrete_label("G17U A37U G60A C82U")
"yes (1)"

Would you say G63A U126G U130G shows polymerase ribozyme fitness (log ratio) at minimum -4? no (0)

I'd appreciate it if you could say whether C8A C56G A91C C123A has polymerase ribozyme fitness (log ratio) at least equal to -4. yes (1)

Determine whether measured polymerase ribozyme fitness (log ratio) meets or exceeds -4 for U7G C8U A29U C40A G48A yes (1)

Confirm if polymerase ribozyme fitness (log ratio) reported for the variant C4U G19A C56G U106A C123G is -4 or above. yes (1)

Exam item: decide whether the reported polymerase ribozyme fitness (log ratio) for G47A G51U C72U U78C is at least -4. no (0)
